We begin with a simple list: items and their reported Cmax.
# TEST SUMMARY: Cmax in portal vein cannulated Sprague-Dawley rat at 30 mg/kg, po measured up to 140 mins
# Type: ADME, organism-based
# Set-up: dose 30 mg/kg, route oral
# DETAILS: portal vein blood
QUANTITY MEASURED: Cmax (ng/mL)

[[record]]
molecule = "CC/C=C\\C/C=C\\C/C=C\\C/C=C\\C/C=C\\CCCC(=O)N1CCC(NC(=O)c2cccnc2)C1 (single isomer, unassigned)"
quantity_measured = "Cmax"
endpoint_result = 5320

[[record]]
molecule = "CC/C=C\\C/C=C\\C/C=C\\C/C=C\\C/C=C\\CCCC(=O)N(C)CCNC(=O)c1cccnc1"
quantity_measured = "Cmax"
endpoint_result = 5060

[[record]]
molecule = "CC/C=C\\C/C=C\\C/C=C\\C/C=C\\C/C=C\\CCCC(=O)NCCNC(=O)c1cccnc1"
quantity_measured = "Cmax"
endpoint_result = 418


====

# TEST SUMMARY: Drug uptake in Sprague-Dawley rat intestine at 300 mg/kg, qd administered through oral gavage for 7 days measured 2 hrs post last dose by LC/MS/MS analysis
# Format: ADME, organism-based
# DETAILS: read-out: Drug uptake
QUANTITY MEASURED: concentration at 2 h (ng/g)

[[record]]
smiles_text = "CC/C=C\\C/C=C\\C/C=C\\C/C=C\\C/C=C\\CCCC(=O)NCCNC(=O)c1cccnc1"
quantity_measured = "concentration at 2 h"
unit_text = "ng/g"
endpoint_result = 6750


====

# TEST SUMMARY: Inhibition of NFkappaB in mouse RAW264.7 cells preincubated for 2 hrs followed by LPS addition for 3 hrs by luciferase reporter gene assay relative to control
# Assay type: cell-based
QUANTITY MEASURED: IC50 (µM)

[[record]]
smiles_text = "CC/C=C\\C/C=C\\C/C=C\\C/C=C\\C/C=C\\C/C=C\\CCC(=O)NCCNC(=O)c1ccccc1O"
quantity_measured = "IC50"
endpoint_result = 25.4


====

# TEST SUMMARY: Cmax in Sprague-Dawley rat at 300 mg/kg, po measured up to 24 hrs post dose
# Assay type: ADME, organism-based
# Design: dose 300 mg/kg, route oral
# DETAILS: in vivo
QUANTITY MEASURED: Cmax

[[record]]
compound = "CC/C=C\\C/C=C\\C/C=C\\C/C=C\\C/C=C\\C/C=C\\CCC(=O)NCCNC(=O)c1ccccc1O [EDASALONEXENT]"
quantity_measured = "Cmax"
endpoint_result = "477 ng/mL"


====

# TEST SUMMARY: Cmax in Sprague-Dawley rat at 100 mg/kg, po administered as single dose measured up to 6 hrs post dose by LC/MS/MS analysis
# Format: ADME, organism-based
# Parameters: dose 100 mg/kg, route oral
# DETAILS: in vivo
QUANTITY MEASURED: Cmax (ng/mL)

[[record]]
smiles_text = "CC/C=C\\C/C=C\\C/C=C\\C/C=C\\C/C=C\\CCCC(=O)NCCNC(=O)c1cccnc1"
endpoint_result = 212


====

# TEST SUMMARY: in vivo
# DETAILS: Sprague-Dawley, rat, po, 30 mg/kg
# Description: Cmax in Sprague-Dawley rat at 30 mg/kg, po administered as single dose measured up to 6 hrs post dose by LC/MS/MS analysis
QUANTITY MEASURED: Cmax at 6 h (ng/mL)

[[record]]
smiles_text = "O=C(O)c1cccnc1"
quantity_measured = "Cmax at 6 h"
endpoint_result = 7470

